Target: T1, human CLDN9 (UniProt O95484 1-217)
T1 chain: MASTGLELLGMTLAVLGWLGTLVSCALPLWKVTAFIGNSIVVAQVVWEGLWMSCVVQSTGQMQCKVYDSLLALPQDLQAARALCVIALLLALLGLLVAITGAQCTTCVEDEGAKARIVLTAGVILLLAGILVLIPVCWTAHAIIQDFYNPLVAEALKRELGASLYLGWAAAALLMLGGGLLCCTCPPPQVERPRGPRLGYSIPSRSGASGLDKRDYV
Assay: HEK293E cell binding; avid
EC50 for assorted binders
Write down the numeric answer in µg/mL and omit the unit.

>  <binder>
XENP35979 H2_L1.187 (antibody, V domains shown) VH: EVQLVQSGAEVKKPGESLRISCKTSGYTFTEYTMHWVRQMPGKSLEWMGGIDPNNGNTHYNQKFQGHVTISVDKSISTAYLQWSSLKASDTAMYYCARIYYFGRLYFDFWGAGTLVTVSS VL: DIQMTQSPSSLSASVGDRVTITCQASEDIVNRLAWYQQKPGKVPKLLISGATSLETGVPSRFSGSGSGKDYTFTISSLQPEDIATYYCQQYWSSPLTFGGGTKVEIKR

>  <display-unit>
µg/mL

>  <recorded-value>
29.2

$$$$

Attention now turns to another entry.
Consider XENP36066 H2.119_L1 (antibody, V domains shown) VH: EVQLVQSGAEVKKPGESLRISCKTSGYTFTEYTMHWVRQMPGKSLEWMGGIDPNNGNTHYNQKFEGHVTISVDKSISTAYLQWSSLKASDTAMYYCARIYYFGRLYFDFWGAGTLVTVSS VL: DIQMTQSPSSLSASVGDRVTITCQASEDIYNRLAWYQQKPGKVPKLLISGATSLETGVPSRFSGSGSGKDYTFTISSLQPEDIATYYCQQYWSSPLTFGGGTKVEIKR . Its measured EC50 is 18
